# System: MV4-11
# Procedure details: CellTox Green cytotoxicity fluorescence relative to DMSO vehicle (fold of vehicle RFU); higher = more cell death (loss of membrane integrity), active = 2 or more
# Condition parameters: 0.01 µM; 48 h
Measurement type: CellTox Green cytotoxicity fluorescence

Compound	Measurement type	Result
CC1=C(O)C(=O)C=C2C1=CC=C1[C@@]2(C)CC[C@@]2(C)[C@@H]3C[C@](C)(C(=O)O)CC[C@]3(C)CC[C@]12C [Celastrol]	CellTox Green cytotoxicity fluorescence	0.955 (inactive)
CN[C@@H]1C[C@H]2O[C@@](C)([C@@H]1OC)n1c3ccccc3c3c4c(c5c6ccccc6n2c5c31)C(=O)NC4 [Staurosporine]	CellTox Green cytotoxicity fluorescence	1.41 (inactive)

Prompt: Tell me CellTox Green cytotoxicity fluorescence reported for "O=c1[nH]c2ccccc2n1C1CCN(Cc2ccc(-c3[nH]c4cc5ncnc5cc4nc3-c3ccccc3)cc2)CC1"
Completion: 0.995 (inactive)

Prompt: Tell me CellTox Green cytotoxicity fluorescence reported for "Cc1cc2c(C(C)C)c(O)c(O)c(C=O)c2c(O)c1-c1c(C)cc2c(C(C)C)c(O)c(O)c(C=O)c2c1O"
Completion: 1 (inactive)

Prompt: Tell me CellTox Green cytotoxicity fluorescence reported for "COc1ccc2c(c1)/C(=C/c1cnc[nH]1)C(=O)N2"
Completion: 0.92 (inactive)

###

# Test system: Kasumi-1
# Procedure details: CellTox Green cytotoxicity fluorescence relative to DMSO vehicle (fold of vehicle RFU); higher = more cell death (loss of membrane integrity), active = 2 or more
# Condition parameters: 0.01 µM; 72 h
CellTox Green cytotoxicity fluorescence values for the compounds below.
Answer as a number with no unit attached.

Please review the entries below; each comes with its answer.
CC[C@H](C)[C@@H]([C@@H](CC(=O)N1CCC[C@H]1[C@H](OC)[C@@H](C)C(=O)N[C@H](C)[C@@H](O)c1ccccc1)OC)N(C)C(=O)[C@@H](NC(=O)[C@@H](NC)C(C)C)C(C)C 1.44
COc1cc(C)[nH]c(=O)c1CNC(=O)c1c(C)n([C@H](C)C2CCOCC2)c2ccccc12 0.966
CN[C@@H]1C[C@H]2O[C@@](C)([C@@H]1OC)n1c3ccccc3c3c4c(c5c6ccccc6n2c5c31)C(=O)NC4 1.24
COc1ccc2c(c1)/C(=C/c1cnc[nH]1)C(=O)N2 0.971
COc1cc([C@@H]2c3cc4c(cc3[C@H](O)[C@H]3COC(=O)[C@@H]23)OCO4)cc(OC)c1OC 0.997

Here is the next item to consider.
Prompt: Tell me CellTox Green cytotoxicity fluorescence reported for "O=c1[nH]c2ccccc2n1C1CCN(Cc2ccc(-c3[nH]c4cc5ncnc5cc4nc3-c3ccccc3)cc2)CC1"
Completion: 0.96

###

# System: Kasumi-1
# Procedure details: CellTox Green cytotoxicity fluorescence relative to DMSO vehicle (fold of vehicle RFU); higher = more cell death (loss of membrane integrity), active = 2 or more
# Condition parameters: 0.1 µM; 24 h
Measurement type: CellTox Green cytotoxicity fluorescence
Answer as a number with no unit attached.

Please review the entries below; each comes with its answer.
O=c1[nH]c2ccccc2n1C1CCN(Cc2ccc(-c3[nH]c4cc5ncnc5cc4nc3-c3ccccc3)cc2)CC1 0.969
O=C(O)C(=O)c1cn(Cc2ccccc2)c2ccc(-c3ccc(OC(F)(F)F)cc3)cc12 1.02
COc1cc([C@@H]2c3cc4c(cc3[C@H](O)[C@H]3COC(=O)[C@@H]23)OCO4)cc(OC)c1OC 0.993

Prompt: Tell me CellTox Green cytotoxicity fluorescence reported for "COc1cc(C)[nH]c(=O)c1CNC(=O)c1c(C)n([C@H](C)C2CCOCC2)c2ccccc12"
Completion: 0.97

Prompt: Tell me CellTox Green cytotoxicity fluorescence reported for "Cc1cc2c(C(C)C)c(O)c(O)c(C=O)c2c(O)c1-c1c(C)cc2c(C(C)C)c(O)c(O)c(C=O)c2c1O"
Completion: 0.99

###

CellTox Green cytotoxicity fluorescence values for the molecules below.
# Test system: CMK
# Procedure details: CellTox Green cytotoxicity fluorescence relative to DMSO vehicle (fold of vehicle RFU); higher = more cell death (loss of membrane integrity), active = 2 or more
# Condition parameters: 0.01 µM; 48 h

Molecule	Result
CC1=C(O)C(=O)C=C2C1=CC=C1[C@@]2(C)CC[C@@]2(C)[C@@H]3C[C@](C)(C(=O)O)CC[C@]3(C)CC[C@]12C [Celastrol]	0.961 (inactive)
Cc1cc2c(C(C)C)c(O)c(O)c(C=O)c2c(O)c1-c1c(C)cc2c(C(C)C)c(O)c(O)c(C=O)c2c1O	0.967 (inactive)
O=c1[nH]c2ccccc2n1C1CCN(Cc2ccc(-c3[nH]c4cc5ncnc5cc4nc3-c3ccccc3)cc2)CC1	0.991 (inactive)
CN[C@@H]1C[C@H]2O[C@@](C)([C@@H]1OC)n1c3ccccc3c3c4c(c5c6ccccc6n2c5c31)C(=O)NC4 [Staurosporine]	0.998 (inactive)

Prompt: Tell me CellTox Green cytotoxicity fluorescence reported for COc1cc([C@@H]2c3cc4c(cc3[C@H](O)[C@H]3COC(=O)[C@@H]23)OCO4)cc(OC)c1OC [Picropodophyllin]
Completion: 0.958 (inactive)

Prompt: Tell me CellTox Green cytotoxicity fluorescence reported for "COc1cc(C)[nH]c(=O)c1CNC(=O)c1c(C)n([C@H](C)C2CCOCC2)c2ccccc12"
Completion: 0.948 (inactive)

Prompt: Tell me CellTox Green cytotoxicity fluorescence reported for CC[C@H](C)[C@@H]([C@@H](CC(=O)N1CCC[C@H]1[C@H](OC)[C@@H](C)C(=O)N[C@H](C)[C@@H](O)c1ccccc1)OC)N(C)C(=O)[C@@H](NC(=O)[C@@H](NC)C(C)C)C(C)C [Monomethyl auristatin E]
Completion: 1.82 (inactive)

###

# Test system: CMK
# Procedure details: CellTox Green cytotoxicity fluorescence relative to DMSO vehicle (fold of vehicle RFU); higher = more cell death (loss of membrane integrity), active = 2 or more
# Condition parameters: 0.1 µM; 72 h
CellTox Green cytotoxicity fluorescence values for the compounds below.
Answer as a number with no unit attached.

Prompt: Tell me CellTox Green cytotoxicity fluorescence reported for "O=c1[nH]c2ccccc2n1C1CCN(Cc2ccc(-c3[nH]c4cc5ncnc5cc4nc3-c3ccccc3)cc2)CC1"
Completion: 0.906

###

CellTox Green cytotoxicity fluorescence values for the molecules below.
# Tested on: MV4-11
# Procedure details: CellTox Green cytotoxicity fluorescence relative to DMSO vehicle (fold of vehicle RFU); higher = more cell death (loss of membrane integrity), active = 2 or more
# Condition parameters: 1 µM; 48 h
Answer as a number with no unit attached.

Molecule	Result
CN[C@@H]1C[C@H]2O[C@@](C)([C@@H]1OC)n1c3ccccc3c3c4c(c5c6ccccc6n2c5c31)C(=O)NC4 [Staurosporine]	2.34
COc1ccc2c(c1)/C(=C/c1cnc[nH]1)C(=O)N2	1.03

Prompt: Tell me CellTox Green cytotoxicity fluorescence reported for "COc1cc(C)[nH]c(=O)c1CNC(=O)c1c(C)n([C@H](C)C2CCOCC2)c2ccccc12"
Completion: 0.936

Prompt: Tell me CellTox Green cytotoxicity fluorescence reported for O=C(O)C(=O)c1cn(Cc2ccccc2)c2ccc(-c3ccc(OC(F)(F)F)cc3)cc12 [Tiplaxtinin]
Completion: 1.01

Prompt: Tell me CellTox Green cytotoxicity fluorescence reported for CC[C@H](C)[C@@H]([C@@H](CC(=O)N1CCC[C@H]1[C@H](OC)[C@@H](C)C(=O)N[C@H](C)[C@@H](O)c1ccccc1)OC)N(C)C(=O)[C@@H](NC(=O)[C@@H](NC)C(C)C)C(C)C [Monomethyl auristatin E]
Completion: 2.5

Prompt: Tell me CellTox Green cytotoxicity fluorescence reported for COc1cc([C@@H]2c3cc4c(cc3[C@H](O)[C@H]3COC(=O)[C@@H]23)OCO4)cc(OC)c1OC [Picropodophyllin]
Completion: 2.6

###

# Test system: CMK
# Procedure details: CellTox Green cytotoxicity fluorescence relative to DMSO vehicle (fold of vehicle RFU); higher = more cell death (loss of membrane integrity), active = 2 or more
# Condition parameters: 1 µM; 72 h
Measurement type: CellTox Green cytotoxicity fluorescence
Answer as a number with no unit attached.

Please review the entries below; each comes with its answer.
CN[C@@H]1C[C@H]2O[C@@](C)([C@@H]1OC)n1c3ccccc3c3c4c(c5c6ccccc6n2c5c31)C(=O)NC4 1.29
COc1cc(C)[nH]c(=O)c1CNC(=O)c1c(C)n([C@H](C)C2CCOCC2)c2ccccc12 0.965
Cn1c(COP(=O)(NCCBr)NCCBr)cnc1[N+](=O)[O-] 1.89

Here is the next item to consider.
Prompt: Tell me CellTox Green cytotoxicity fluorescence reported for "COc1cc([C@@H]2c3cc4c(cc3[C@H](O)[C@H]3COC(=O)[C@@H]23)OCO4)cc(OC)c1OC"
Completion: 1.58

These measurements were taken from the supplement of paper PMC7595190.
